experimentNotes: Solubility in solubilizer solutions (shaken overnight, supernatant by HPLC)
Format: physicochemical
studyConditions: solubilizer solution, aqueous with cosolvent or surfactant or cyclodextrin, thermodynamic from solid, 25% PEG 400 (w/w); read-out: Solubility, Final conc
reportedEndpoint: solubility (µg/mL)
Just the number please, in µg/mL, no unit attached.

Ask | Which measured solubility value corresponds to CC1(C)O[C@@H]2C[C@H]3[C@@H]4CCC5=CC(=O)C=C[C@]5(C)[C@@]4(F)[C@@H](O)C[C@]3(C)[C@]2(C(=O)CO)O1 [TMCA, triamcinolone acetonide] ?
Reply | 70

---

experimentNotes: Solubility in solubilizer solutions (shaken overnight, supernatant by HPLC)
Format: physicochemical
studyConditions: solubilizer solution, aqueous with cosolvent or surfactant or cyclodextrin, thermodynamic from solid, 15% cremophor (w/w); read-out: Solubility, Final conc
reportedEndpoint: solubility (µg/mL)
Just the number please, in µg/mL, no unit attached.

Ask | Which measured solubility value corresponds to CC1(C)O[C@@H]2C[C@H]3[C@@H]4CCC5=CC(=O)C=C[C@]5(C)[C@@]4(F)[C@@H](O)C[C@]3(C)[C@]2(C(=O)CO)O1 [TMCA, triamcinolone acetonide] ?
Reply | 480

---

experimentNotes: Solubility in solubilizer solutions (shaken overnight, supernatant by HPLC)
Type: physicochemical
studyConditions: solubilizer solution, aqueous with cosolvent or surfactant or cyclodextrin, thermodynamic from solid, 15% cremophor, 25% ethanol, 25% glycerin (w/w); read-out: Solubility, Final conc
reportedEndpoint: solubility (µg/mL)
Just the number please, in µg/mL, no unit attached.

Ask | Which measured solubility value corresponds to CC1(C)O[C@@H]2C[C@H]3[C@@H]4CCC5=CC(=O)C=C[C@]5(C)[C@@]4(F)[C@@H](O)C[C@]3(C)[C@]2(C(=O)CO)O1 [TMCA, triamcinolone acetonide] ?
Reply | 2430

---

experimentNotes: Solubility in solubilizer solutions (shaken overnight, supernatant by HPLC)
Format: physicochemical
studyConditions: solubilizer solution, aqueous with cosolvent or surfactant or cyclodextrin, thermodynamic from solid, 15% ethanol (95%), 20% PEG400, 20% glycerin, in phosphate buffer (w/w); read-out: Solubility, Final conc
reportedEndpoint: solubility (mg/mL)
Just the number please, in mg/mL, no unit attached.

Ask | Which measured solubility value corresponds to C[C@@H]1C[C@H]2[C@@H]3CCC4=CC(=O)C=C[C@]4(C)[C@@]3(F)[C@@H](O)C[C@]2(C)[C@@]1(O)C(=O)COP(=O)(O)O [DEX, dexamethasone sodium phosphate] ?
Reply | 156

---

experimentNotes: Solubility in solubilizer solutions (shaken overnight, supernatant by HPLC)
Assay type: physicochemical
studyConditions: solubilizer solution, aqueous with cosolvent or surfactant or cyclodextrin, thermodynamic from solid, 15% cremophor, 25% ethanol (w/w); read-out: Solubility, Final conc
reportedEndpoint: solubility (µg/mL)
Just the number please, in µg/mL, no unit attached.

Ask | Which measured solubility value corresponds to CC1(C)O[C@@H]2C[C@H]3[C@@H]4CCC5=CC(=O)C=C[C@]5(C)[C@@]4(F)[C@@H](O)C[C@]3(C)[C@]2(C(=O)CO)O1 [TMCA, triamcinolone acetonide] ?
Reply | 1380

---

experimentNotes: Solubility in solubilizer solutions (shaken overnight, supernatant by HPLC)
Format: physicochemical
studyConditions: solubilizer solution, aqueous with cosolvent or surfactant or cyclodextrin, thermodynamic from solid, 5% tween 80 (w/w); read-out: Solubility, Final conc
reportedEndpoint: solubility
In your response, the unit should come after the numeric value.

Ask | Which measured solubility value corresponds to CC1(C)O[C@@H]2C[C@H]3[C@@H]4CCC5=CC(=O)C=C[C@]5(C)[C@@]4(F)[C@@H](O)C[C@]3(C)[C@]2(C(=O)CO)O1 [TMCA, triamcinolone acetonide] ?
Reply | 120 µg/mL
